Biological target: YxeB-S142-6×His (Bacillus cereus, UniProt Q81IK3, L142S)
Sequence (Q81IK3 19-306 L142S): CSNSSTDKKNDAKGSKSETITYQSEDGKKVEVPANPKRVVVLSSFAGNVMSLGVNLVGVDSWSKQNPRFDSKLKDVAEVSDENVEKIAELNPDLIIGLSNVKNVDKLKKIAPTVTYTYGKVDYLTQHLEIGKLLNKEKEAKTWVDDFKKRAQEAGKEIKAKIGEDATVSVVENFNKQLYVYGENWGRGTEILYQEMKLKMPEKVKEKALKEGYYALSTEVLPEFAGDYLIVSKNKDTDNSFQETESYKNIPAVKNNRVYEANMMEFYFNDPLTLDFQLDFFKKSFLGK
Assay: Fluorescence quenching
Format: binding
pKd: −log10 of the molar value. Square brackets hold non-standard residues; d marks the D form. Peptide text beside a SMILES is read from it. Orn(N5-OH,N5-Ac) = CC(=O)N(O)CCC[C@H](N)C(=O)O
Reported pKd values for the following compounds.
assay-readout: pKd

1) CC(=O)N(O)CCC[C@@H]1NC(=O)CNC(=O)CNC(=O)CNC(=O)[C@H](CCCN(O)C(C)=O)NC(=O)[C@H](CCCN(O)C(C)=O)NC1=O [DFch, desferrichrome] (cyclo(GGG[Orn(N5-OH,N5-Ac)][Orn(N5-OH,N5-Ac)][Orn(N5-OH,N5-Ac)])); 7.64
2) CC(=O)NCCCCCN(O)C(=O)CCC(=O)NCCCCCN(O)C(=O)CCC(=O)NCCCCCN(O)C(C)=O; 7.51

====

target: YxeB-S142-6×His (Bacillus cereus, UniProt Q81IK3, L142S); assay: Fluorescence quenching; type: binding; conditions: read-out: Kd (nM) by FQ assay; calculated by Hyperquad; SD in parentheses
assay-readout: Kd (nM)

1. CC(=O)NCCCCCN(O)C(=O)CCC(=O)NCCCCCN(O)C(=O)CCC(=O)NCCCCCN(O)C(C)=O.[Fe+3]; 31.6
2. CC(=O)N(O)CCCCCNC(=O)CCC(=O)N(O)CCCCCNC(=O)CCC(=O)N(O)CCCCCN.[Ga+3]; 44.6

Each recorded value in this set is attributed to paper PMC4168784.
